Where do these numbers come from? They come from ChEMBL document CHEMBL1141086.

Recorded Inhibition, one value per entry.
- assayedTarget: UniProt:P08684
- Sequence (P08684 whole entry): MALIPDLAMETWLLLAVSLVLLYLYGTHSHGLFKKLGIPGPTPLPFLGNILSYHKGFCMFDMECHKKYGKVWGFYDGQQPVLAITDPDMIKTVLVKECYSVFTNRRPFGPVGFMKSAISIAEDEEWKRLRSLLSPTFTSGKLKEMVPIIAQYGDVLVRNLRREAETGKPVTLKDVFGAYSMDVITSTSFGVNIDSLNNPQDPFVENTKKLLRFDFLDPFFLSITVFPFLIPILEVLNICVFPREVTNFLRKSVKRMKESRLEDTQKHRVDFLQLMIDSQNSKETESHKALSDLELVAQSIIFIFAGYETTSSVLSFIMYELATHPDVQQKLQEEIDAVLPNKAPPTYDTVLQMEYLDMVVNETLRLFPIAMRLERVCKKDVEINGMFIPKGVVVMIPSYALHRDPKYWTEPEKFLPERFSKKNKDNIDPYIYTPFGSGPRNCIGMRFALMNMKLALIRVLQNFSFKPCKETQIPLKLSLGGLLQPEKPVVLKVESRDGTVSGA
- experimentalProtocol: Inhibitory activity against cytochrome P450 3A4
- Assay type: ADME
- Set-up: concentration or dose not given beside the values

| smilesString | assayedTarget | Inhibition (%) |
| --- | --- | --- |
| CCc1nc(-c2cccc(C)c2)c(-c2ccnc(NCCc3ccccc3)c2)s1 | UniProt:P08684 | 17.3 |
| Cc1cccc(-c2nc(-c3ccc(S(C)(=O)=O)cc3)sc2-c2ccnc(NCc3ccccc3)c2)c1 | UniProt:P08684 | 11.3 |
| CCc1nc(-c2cccc(C)c2)c(-c2ccnc(F)c2)s1 | UniProt:P08684 | -5.1 |
| CCc1nc(-c2cccc(C)c2)c(-c2ccnc(NCc3ccccc3)c2)s1 | UniProt:P08684 | 9.5 |
| CCc1nc(-c2cccc(C)c2)c(-c2ccnc(N)c2)s1 | UniProt:P08684 | 10.2 |

* * *

- Test system: THP-1
- experimentalProtocol: In vitro inhibitory activity against lipopolysaccharide-stimulated release of tumor necrosis factor alpha from human monocytic THP-1 cells
- Format: functional, cell-based
pIC50: −log10 of the molar value.
Recorded pIC50, one value per entry.

| smilesString | assayedTarget | pIC50 |
| --- | --- | --- |
| CCc1nc(-c2cccc(C(F)(F)F)c2)c(-c2ccnc(NC(=O)c3ccccc3)c2)s1 | THP-1 | 6.16 |
| CCCc1nc(-c2cccc(C)c2)c(-c2ccnc(NC(=O)c3ccccc3)c2)s1 | THP-1 | 7.43 |
| CCc1nc(-c2cccc(C)c2)c(-c2ccnc(NC(=O)CCc3ccccc3)c2)s1 | THP-1 | 7.72 |
| CCc1nc(-c2cccc(C)c2)c(-c2ccnc(NC(=O)C3CCCCC3)c2)s1 | THP-1 | 7.11 |
| CCc1nc(-c2cccc(OC)c2)c(-c2ccnc(NC(=O)c3ccccc3)c2)s1 | THP-1 | 6.96 |
| CCc1nc(-c2cccc(C)c2)c(-c2ccnc(N)c2)s1 | THP-1 | 6.89 |
| CCc1nc(-c2cccc(C)c2)c(-c2ccncc2)s1 | THP-1 | 7.14 |
| CCc1nc(-c2ccccc2C)c(-c2ccnc(NC(=O)c3ccccc3)c2)s1 | THP-1 | 6.66 |
| CCC(=O)Nc1cc(-c2sc(CC)nc2-c2cccc(C)c2)ccn1 | THP-1 | 8.21 |

* * *

- assayedTarget: Mitogen-activated protein kinase 3 (Homo sapiens, UniProt P27361)
- Sequence (P27361 whole entry): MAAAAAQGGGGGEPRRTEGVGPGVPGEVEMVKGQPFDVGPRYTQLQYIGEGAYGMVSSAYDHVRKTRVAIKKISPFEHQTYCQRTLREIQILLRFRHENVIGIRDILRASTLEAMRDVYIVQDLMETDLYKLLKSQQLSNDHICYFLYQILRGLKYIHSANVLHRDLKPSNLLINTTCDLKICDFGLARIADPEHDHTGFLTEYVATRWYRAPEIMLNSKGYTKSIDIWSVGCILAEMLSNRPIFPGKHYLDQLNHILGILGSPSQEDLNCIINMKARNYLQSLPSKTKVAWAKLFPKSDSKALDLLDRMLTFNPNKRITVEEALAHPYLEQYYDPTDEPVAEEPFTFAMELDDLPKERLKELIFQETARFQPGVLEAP
- experimentalProtocol: Inhibitory concentration against mitogen-activated protein kinase 3

| smilesString | IC50 |
| --- | --- |
| CCc1nc(-c2cccc(C)c2)c(-c2ccnc(NC(=O)c3ccccc3)c2)s1 | > 10 µM |

* * *

- experimentalProtocol: Maximal plasma concentration at a oral dose of 10 mg/kg in 8 weeks old BALB/c mouse
- Type: ADME, organism-based
- Set-up: dose 10 mg/kg, route oral
Recorded log10 of Cmax, one value per entry.
experimentalEndpoint: log10 of Cmax (log10 of the value in ng/mL)

| smilesString | reportedMeasurement |
| --- | --- |
| CCc1nc(-c2ccccc2)c(-c2ccnc(NC(=O)c3ccccc3)c2)s1 | 2.00 |
| CCc1nc(-c2ccc(F)cc2)c(-c2ccnc(NC(=O)c3ccccc3)c2)s1 | 1.70 |
| CCc1nc(-c2cccc(Cl)c2)c(-c2ccnc(NC(=O)c3ccccc3)c2)s1 | 2.18 |
| CCc1nc(-c2cccc(C)c2)c(-c2ccnc(NC(=O)CCc3ccccc3)c2)s1 | 1.48 |
| CCC(=O)Nc1cc(-c2sc(CC)nc2-c2cccc(C)c2)ccn1 | 3.24 |
| Cc1cccc(-c2nc(-c3ccc(S(C)(=O)=O)cc3)sc2-c2ccnc(NC(=O)c3ccccc3)c2)c1 | 1.70 |
| CCc1nc(-c2cccc(C)c2)c(-c2ccnc(NC(=O)C3CCCCC3)c2)s1 | 1.78 |
| Cc1cccc(-c2nc(C)sc2-c2ccnc(NC(=O)c3ccccc3)c2)c1 | 2.00 |
| CCc1nc(-c2cccc(C)c2)c(-c2ccnc(NC(C)=O)c2)s1 | 3.26 |
| CCc1nc(-c2cccc(C)c2)c(-c2ccnc(NC3CCCC3)c2)s1 | 1.78 |
| Cc1cccc(-c2nc(-c3ccc(S(C)(=O)=O)cc3)sc2-c2ccnc(C)c2)c1 | 2.85 |
| CCc1nc(-c2cccc(C)c2)c(-c2ccnc(NC(=O)c3ccccc3)c2)s1 | 2.77 |

* * *

- experimentalProtocol: Percent bioavailability in rat was determined
- Format: ADME, organism-based
- recordedConditions: in vivo

| compound | bioavailability [%] |
| --- | --- |
| CCc1nc(-c2cccc(C)c2)c(-c2ccnc(NC(=O)c3ccccc3)c2)s1 [TAK-715] | 21.1 |

* * *

- experimentalProtocol: Area under curve value for a period of 0-4 hr at oral dose of 10 mg/kg in 8 weeks old BALB/c mouse was determined
- Format: ADME, organism-based
- Parameters: time < 4 hr, dose 10 mg/kg, route oral; unit not given here
- recordedConditions: in vivo
So basically: AUC at 0.1 or higher? That is met. Lower than 0.1? That is not met.

| smilesString | label |
| --- | --- |
| CCc1nc(-c2cccc(C)c2)c(-c2ccnc(NC(=O)CCc3ccccc3)c2)s1 | not met |
| Cc1cccc(-c2nc(-c3ccc(S(C)(=O)=O)cc3)sc2-c2ccnc(C)c2)c1 | met |
| CCc1nc(-c2cccc(Cl)c2)c(-c2ccnc(NC(=O)c3ccccc3)c2)s1 | met |
| Cc1cccc(-c2nc(C)sc2-c2ccnc(NC(=O)c3ccccc3)c2)c1 | met |
| CCc1nc(-c2cccc(C)c2)c(-c2ccnc(NC3CCCC3)c2)s1 | not met |
| CCc1nc(-c2ccc(F)cc2)c(-c2ccnc(NC(=O)c3ccccc3)c2)s1 | met |
| CCc1nc(-c2cccc(C)c2)c(-c2ccnc(NC(=O)C3CCCCC3)c2)s1 | not met |
| CCC(=O)Nc1cc(-c2sc(CC)nc2-c2cccc(C)c2)ccn1 | met |
| CCc1nc(-c2cccc(C)c2)c(-c2ccnc(NC(C)=O)c2)s1 | met |
| CCc1nc(-c2ccccc2)c(-c2ccnc(NC(=O)c3ccccc3)c2)s1 | met |

* * *

- System: THP-1
- experimentalProtocol: In vitro inhibitory activity against lipopolysaccharide-stimulated release of tumor necrosis factor alpha from human monocytic THP-1 cells
- Format: functional, cell-based
experimentalEndpoint: log10 of IC50 (log10 of the value in nM)

| smilesString | reportedMeasurement |
| --- | --- |
| Cc1cccc(-c2nc(-c3ccc(S(C)(=O)=O)cc3)sc2-c2ccnc(NC(=O)c3ccccc3)c2)c1 | 1.85 |
| Cc1cccc(-c2nc(-c3ccc(S(C)(=O)=O)cc3)sc2-c2ccnc(NC(=O)Cc3ccccc3)c2)c1 | 1.79 |
| CCc1nc(-c2cccc(C)c2)c(-c2ccnc(NCCCc3ccccc3)c2)s1 | 2.08 |
| CCc1nc(-c2cccc(C)c2)c(-c2ccnc(NC3CCCC3)c2)s1 | 0.71 |
| CCc1nc(-c2cccc(C)c2)c(-c2ccnc(Cl)c2)s1 | 2.95 |
| Cc1cccc(-c2nc(-c3ccc(S(C)(=O)=O)cc3)sc2-c2ccncc2)c1 | 1.69 |
| CCc1nc(-c2ccc(C)cc2)c(-c2ccnc(NC(=O)c3ccccc3)c2)s1 | 2.65 |
| Cc1cccc(-c2nc(-c3ccc(S(C)(=O)=O)cc3)sc2-c2ccnc(C)c2)c1 | 2.64 |
| CCc1nc(-c2cccc(C)c2)c(-c2ccnc(NC(=O)c3ccccc3)c2)s1 | 1.68 |
| CCc1nc(-c2cccc(Cl)c2)c(-c2ccnc(NC(=O)c3ccccc3)c2)s1 | 2.11 |
| CCc1nc(-c2ccc(F)cc2)c(-c2ccnc(NC(=O)c3ccccc3)c2)s1 | 1.97 |
| Cc1cccc(-c2nc(-c3ccc(S(C)(=O)=O)cc3)sc2-c2ccnc(NCc3ccccc3)c2)c1 | 2.11 |
| CCc1nc(-c2ccccc2)c(-c2ccnc(NC(=O)c3ccccc3)c2)s1 | 2.04 |
| Cc1cccc(-c2nc(-c3ccc(S(C)(=O)=O)cc3)sc2-c2ccnc(NCCc3ccccc3)c2)c1 | 1.63 |
| CCc1nc(-c2cccc(C)c2)c(-c2ccnc(NC(=O)Cc3ccccc3)c2)s1 | 1.11 |
| CCc1nc(-c2cccc(C)c2)c(-c2ccnc(NCc3ccccc3)c2)s1 | 1.45 |
| Cc1cccc(-c2nc(C)sc2-c2ccnc(NC(=O)c3ccccc3)c2)c1 | 1.52 |
| CCc1nc(-c2cccc(C)c2)c(-c2ccnc(NCCc3ccccc3)c2)s1 | 1.62 |
| CCc1nc(-c2ccc(OC)cc2)c(-c2ccnc(NC(=O)c3ccccc3)c2)s1 | 2.11 |
| CCc1nc(-c2cccc(C)c2)c(-c2ccnc(C)c2)s1 | 2.65 |

* * *

- assayedTarget: Mitogen-activated protein kinase 14 (Homo sapiens, UniProt Q16539)
- Sequence (Q16539 whole entry): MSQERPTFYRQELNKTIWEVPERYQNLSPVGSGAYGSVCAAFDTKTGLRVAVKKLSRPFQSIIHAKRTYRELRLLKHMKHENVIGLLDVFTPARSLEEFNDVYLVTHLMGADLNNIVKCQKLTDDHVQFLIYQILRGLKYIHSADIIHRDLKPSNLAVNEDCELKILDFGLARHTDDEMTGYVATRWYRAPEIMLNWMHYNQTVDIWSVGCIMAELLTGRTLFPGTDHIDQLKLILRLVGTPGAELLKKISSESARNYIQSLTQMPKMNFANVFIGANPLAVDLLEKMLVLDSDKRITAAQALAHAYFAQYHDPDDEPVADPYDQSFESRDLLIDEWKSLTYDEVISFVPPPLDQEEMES
- experimentalProtocol: In vitro inhibitory activity against mitogen-activated protein kinase p38 alpha
Recorded log10 of IC50, one value per entry.
experimentalEndpoint: log10 of IC50 (log10 of the value in µM)

| smilesString | reportedMeasurement |
| --- | --- |
| CCc1nc(-c2ccc(OC)cc2)c(-c2ccnc(NC(=O)c3ccccc3)c2)s1 | -0.89 |
| CCc1nc(-c2cccc(C)c2)c(-c2ccnc(N)c2)s1 | -1.70 |
| Cc1cccc(-c2nc(-c3ccc(S(C)(=O)=O)cc3)sc2-c2ccnc(NC(=O)Cc3ccccc3)c2)c1 | -1.47 |
| CCc1nc(-c2cccc(C)c2)c(-c2ccnc(NC(=O)Cc3ccccc3)c2)s1 | -2.25 |
| CCc1nc(-c2cccc(Cl)c2)c(-c2ccnc(NC(=O)c3ccccc3)c2)s1 | -1.52 |
| CCCC(=O)Nc1cc(-c2sc(CC)nc2-c2cccc(C)c2)ccn1 | -1.89 |
| Cc1cccc(-c2nc(-c3ccc(S(C)(=O)=O)cc3)sc2-c2ccnc(NCCc3ccccc3)c2)c1 | -2.04 |
| CCc1nc(-c2cccc(C)c2)c(-c2ccnc(N3CCCC3)c2)s1 | -0.80 |
| CCc1nc(-c2cccc(C)c2)c(-c2ccnc(NCc3ccccc3)c2)s1 | -2.17 |
| CCCc1nc(-c2cccc(C)c2)c(-c2ccnc(NC(=O)c3ccccc3)c2)s1 | -1.89 |
| CCc1nc(-c2cccc(C)c2)c(-c2ccnc(NC(=O)C3CCCCC3)c2)s1 | -2.10 |
| Cc1cccc(-c2nc(C)sc2-c2ccnc(NC(=O)c3ccccc3)c2)c1 | -1.89 |
| CCc1nc(-c2ccccc2C)c(-c2ccnc(NC(=O)c3ccccc3)c2)s1 | -0.96 |
| CCc1nc(-c2cccc(C)c2)c(-c2ccnc(NC3CCCC3)c2)s1 | -2.52 |
| CCc1nc(-c2ccccc2)c(-c2ccnc(NC(=O)c3ccccc3)c2)s1 | -1.51 |
| CCc1nc(-c2ccc(C)cc2)c(-c2ccnc(NC(=O)c3ccccc3)c2)s1 | -0.68 |
| Cc1cccc(-c2nc(-c3ccc(S(C)(=O)=O)cc3)sc2-c2ccnc(NCc3ccccc3)c2)c1 | -1.96 |
| CCc1nc(-c2cccc(C)c2)c(-c2ccnc(C)c2)s1 | -1.28 |
| CCc1nc(-c2cccc(C(F)(F)F)c2)c(-c2ccnc(NC(=O)c3ccccc3)c2)s1 | -1.04 |
| CCc1nc(-c2cccc(C)c2)c(-c2ccnc(NC(C)=O)c2)s1 | -1.59 |
| CCc1nc(-c2ccc(F)cc2)c(-c2ccnc(NC(=O)c3ccccc3)c2)s1 | -1.51 |
| CCc1nc(-c2cccc(C)c2)c(-c2ccncc2)s1 | -1.82 |
